Assay: AUC in Sprague-Dawley rat systemic circulation at 5 mg/kg, po or 0.5 mg/kg, iv measured up to 24 hrs by HPLC-MS/MS analysis
Assay type: ADME, organism-based
Parameters: dose 5 mg/kg, time <=24
Positions of bridges follow the written chain, without caps; N, C: chain ends. Non-standard residues stand in square brackets, D forms with d. Residues, ends and D or L forms follow the SMILES beside them. NMeF = CN[C@@H](Cc1ccccc1)C(=O)O; NMeNle = CCCC[C@H](NC)C(=O)O; Nle = CCCC[C@H](N)C(=O)O
Each record here notes measured log10 AUC at 24 h.
A value of 2 here means AUC at 24 h of 100 in µM·h, since values are log10.

Sample answers from the record:
{"compound": "CCCC[C@@H]1NC(=O)[C@H](CCCC)N(C)C(=O)[C@@H]2CCCN2C(=O)[C@H](CCCC)N(C)C(=O)[C@H](Cc2ccccc2)NC(=O)CSC[C@@H](C(=O)NC)NC(=O)[C@H](CCCC)N(C)C1=O ({CH2CO}-F[NMeNle]P[NMeNle][Nle][NMeNle]C-NHMe; thioether N-7)", "log10 AUC at 24 h": 0.33}
{"compound": "CCCC[C@@H]1NC(=O)[C@H](Cc2ccccc2)N(C)C(=O)CSC[C@H](C(=O)NC)N(C)C(=O)[C@H](CCCC)NC(=O)[C@H](CCCC)N(C)C(=O)C2CCCN2C1=O (stereo not given in full)", "log10 AUC at 24 h": -1.04}
{"compound": "CCCC[C@@H]1NC(=O)[C@H](Cc2ccccc2)N(C)C(=O)[C@@H]2CCCN2C(=O)[C@H](CCCC)N(C)C(=O)[C@H](Cc2ccccc2)NC(=O)CSC[C@@H](C(=O)NC)NC(=O)[C@H](CCCC)N(C)C1=O ({CH2CO}-F[NMeNle]P[NMeF][Nle][NMeNle]C-NHMe; thioether N-7)", "log10 AUC at 24 h": 0.12}
{"compound": "CCCC[C@@H]1NC(=O)[C@H](Cc2ccccc2)N(C)C(=O)CSC[C@H](C(=O)NC)N(C)C(=O)[C@H](CCCC)NC(=O)[C@H](CCCC)N(C)C(=O)[C@H](CCCC)NC1=O", "log10 AUC at 24 h": -0.59}
{"compound": "CCCC[C@@H]1NC(=O)[C@H](CCCC)N(C)C(=O)[C@H](CCCC)NC(=O)[C@H](Cc2ccccc2)N(C)C(=O)[C@H]([C@@H](C)O)NC(=O)[C@H](CCCC)N(C)C(=O)[C@@H](Cc2ccccc2)NC(=O)CSC[C@@H](C(=O)NC)NC1=O", "log10 AUC at 24 h": -0.43}

Reported log10 AUC at 24 h ( CCCC[C@@H]1NC(=O)[C@H](Cc2ccccc2)NC(=O)CSC[C@H](C(=O)NC)NC(=O)[C@H](CCCC)N(C)C(=O)[C@H](CCCC)NC(=O)[C@H](CCCC)N(C)C1=O ) = 0.36

Summary for this compound, CCCC[C@@H]1NC(=O)[C@H](CCCC)NC(=O)[C@H](CCCC)N(C)C(=O)[C@@H]2CCCN2C(=O)[C@H](CCCC)N(C)C(=O)[C@H](Cc2ccccc2)NC(=O)CSC[C@@H](C(=O)NC)NC1=O ({CH2CO}-F[NMeNle]P[NMeNle][Nle][Nle]C-NHMe; thioether N-7) : log10 AUC at 24 h is -2.00

response.value for CCCC[C@@H]1NC(=O)[C@H](CCCC)N(C)C(=O)[C@H](CCCC)NC(=O)[C@H](CCCC)N(C)C(=O)[C@H](CCCC)NC(=O)[C@H](CCCC)N(C)C(=O)[C@@H](Cc2ccccc2)NC(=O)CSC[C@@H](C(=O)NC)NC1=O (field: log10 AUC at 24 h) = 0.10

Documented log10 AUC at 24 h of CCCC[C@@H]1NC(=O)C2CCCN2C(=O)[C@H](CCCC)NC(=O)[C@H](Cc2ccccc2)NC(=O)CSC[C@H](C(=O)NC)NC(=O)[C@H](CCCC)NC1=O (stereo not given in full) : -3.22

Memo: CCCC[C@@H]1NC(=O)[C@H](Cc2ccccc2)NC(=O)CSC[C@@H](C(=O)NC)NC(=O)[C@H](CCCC)N(C)C(=O)[C@H](CCCC)N(C)C(=O)[C@H](CCCC)N(C)C(=O)[C@H](CCCC)NC(=O)[C@H](CCCC)N(C)C1=O ({CH2CO}-F[Nle][NMeNle][Nle][NMeNle][NMeNle][NMeNle]C-NHMe; thioether N-8) , reported log10 AUC at 24 h: 0.03
